The following binders are shown together with reported pKd values.
- test_system: T1, rat cMET-Fc (rat, UniProt P97523 25-935)
- T1 construct: Construct named only as rMET-Fc; also called rMET-Fc; not shown: Fc part
- T1 sequence (P97523 25-935 limits assumed): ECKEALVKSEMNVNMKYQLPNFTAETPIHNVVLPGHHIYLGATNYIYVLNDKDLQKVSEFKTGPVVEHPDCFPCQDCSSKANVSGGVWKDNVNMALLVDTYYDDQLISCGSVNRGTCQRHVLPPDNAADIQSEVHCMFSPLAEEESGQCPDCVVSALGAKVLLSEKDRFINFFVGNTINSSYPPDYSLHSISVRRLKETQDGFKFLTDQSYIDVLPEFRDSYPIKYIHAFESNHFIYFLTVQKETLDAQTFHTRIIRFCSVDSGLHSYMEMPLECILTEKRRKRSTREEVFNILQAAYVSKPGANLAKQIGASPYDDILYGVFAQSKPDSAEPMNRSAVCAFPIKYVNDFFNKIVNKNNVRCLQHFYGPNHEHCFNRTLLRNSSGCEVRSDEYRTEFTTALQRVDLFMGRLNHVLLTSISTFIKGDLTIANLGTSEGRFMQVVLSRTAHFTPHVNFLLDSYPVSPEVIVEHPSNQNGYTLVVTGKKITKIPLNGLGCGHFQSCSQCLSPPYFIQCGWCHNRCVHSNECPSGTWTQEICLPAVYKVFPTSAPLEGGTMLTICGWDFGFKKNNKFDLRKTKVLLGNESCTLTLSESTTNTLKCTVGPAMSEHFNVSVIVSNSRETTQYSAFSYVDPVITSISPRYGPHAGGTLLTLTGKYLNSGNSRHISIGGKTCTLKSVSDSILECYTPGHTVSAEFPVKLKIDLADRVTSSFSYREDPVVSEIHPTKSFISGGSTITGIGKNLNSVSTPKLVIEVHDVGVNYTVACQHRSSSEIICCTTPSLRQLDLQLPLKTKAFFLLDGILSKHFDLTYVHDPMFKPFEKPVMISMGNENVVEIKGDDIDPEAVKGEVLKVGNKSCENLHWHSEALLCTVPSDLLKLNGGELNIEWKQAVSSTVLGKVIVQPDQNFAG
- test_name: SPR, rMET-Fc
When answering, recall that pKd equals minus log10 of the concentration in mol/L, and write that number alone.

[
  {
    "binder": "G2cka (humanized P3D12, VH-cdr + VL-abb/sdr) (antibody, V domains shown, Humanized and isotype switched version of P3D12) VH: QVQLVQSGAEVKKPGASVKVSCKASGYTFTSYWMHWVKQAPGQGLDWIGYIKPSTDNTEYNQKFKDKATLTADKSTSTAYMELSSLRSEDTAVYYCARSYGNYPLMDYWGQGTTVTVSS VL: QIVLTQSPATLSLSPGERATLSCRASQSVTSNYLYWYQQKPGSSPRLLIYSTSNLASGVPARFSGSGSGTDYTLTISRLEPEDFASYFCHQWSSYPPTFGSGTKLEIKR",
    "pKd": 7.54
  }
]

Q: What does the record list as pKd for G2vkf (humanized P3D12, VH-ven + VL-fra) (antibody, V domains shown, Humanized and isotype switched version of P3D12) VH: QVQLVQSGAEVAKPGASVKMSCKASGYTFTSYWMHWVKQAPGQGLDWIGYIKPSTDNTEYNQKFKDKATLTADKSTSTAYMQLSSLRSEDTAVYYCARSYGNYPLMDYWGQGTTVTVSS VL: QIVLTQSPAILSLSPGERATLSCSASSSVTSNYLYWYQQKPGSSPKLLIYSTSNLASGVPARFSGSGSGTSYTLTISSLEAEDAASYFCHQWSSYPPTFGSGTKLEIKR ?
Ans: 8.10

Q: What does the record list as pKd for G2fkf (humanized P3D12, VH-fra + VL-fra) (antibody, V domains shown, Humanized and isotype switched version of P3D12) VH: QVQLQQSGAEVKKPGASVKVSCKASGYTFTSYWMHWVKQRPGQGLDWIGYIKPSTDNTEYNQKFKDRVTLTADKSTSTAYMQLSNLISEDTAVYYCARSYGNYPLMDYWGQGTSVTVSS VL: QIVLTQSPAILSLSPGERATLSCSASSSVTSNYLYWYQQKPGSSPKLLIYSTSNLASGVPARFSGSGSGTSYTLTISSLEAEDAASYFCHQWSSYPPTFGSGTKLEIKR ?
Ans: 7.52
